Target: wild-type ABL kinase domain (Homo sapiens, UniProt P00519)
Construct: ABL kinase domain (corresponding to residues 229-512); GST (N, cleaved yes); PreScission cleavage site (N, cleaved yes); made in house; host or cells: High5 insect cells (baculovirus)
Sequence (P00519 229-512): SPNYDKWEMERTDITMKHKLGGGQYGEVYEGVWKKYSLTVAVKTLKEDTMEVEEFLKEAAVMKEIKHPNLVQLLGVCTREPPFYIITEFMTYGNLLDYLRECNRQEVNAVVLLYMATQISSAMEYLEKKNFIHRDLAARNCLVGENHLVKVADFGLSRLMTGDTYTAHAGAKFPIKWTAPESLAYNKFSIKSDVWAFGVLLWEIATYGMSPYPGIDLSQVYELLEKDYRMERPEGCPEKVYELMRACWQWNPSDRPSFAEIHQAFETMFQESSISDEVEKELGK
Assay: ATP site-dependent displacement assay, indolinone probe of 3.1
Assay type: binding
Details: Table 1 validation; probe 3.1 at 0.12 μM; highest conc. ATPγS 250 μM, Imatinib 10 μM; average of three experiments
Value Kind: Kd (µM)

> print(dat)
                                   compound  result.units  value
1  Nc1ncnc2c1ncn2[C@@H]1O[C@H](COP(=O)(O)OP(=O)(O)OP(O)(O)=S)[C@@H](O)[C@H]1O [ATPγS, reference compound]            µM      9

---

Biological target: Wild-type ABL 0P (unphosphorylated) kinase domain (Homo sapiens, UniProt P00519)
Construct: ABL kinase domain (corresponding to residues 229-512); GST (N, cleaved yes); PreScission cleavage site (N, cleaved yes); made in house; host or cells: High5 insect cells (baculovirus)
Sequence (P00519 229-512): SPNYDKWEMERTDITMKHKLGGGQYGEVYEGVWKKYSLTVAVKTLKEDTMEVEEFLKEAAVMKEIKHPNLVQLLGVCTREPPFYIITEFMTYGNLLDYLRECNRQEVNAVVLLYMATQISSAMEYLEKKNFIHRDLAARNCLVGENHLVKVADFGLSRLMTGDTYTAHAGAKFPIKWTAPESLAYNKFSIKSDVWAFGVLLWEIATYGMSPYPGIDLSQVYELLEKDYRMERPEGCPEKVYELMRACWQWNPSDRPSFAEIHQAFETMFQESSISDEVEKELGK
Test: ATP site-dependent displacement assay, indolinone probe of 3.1
Assay type: binding
Settings: Table 1 validation; probe 3.1 at 0.15 μM; highest conc. ATPγS 250 μM, Imatinib 10 μM; average of three experiments
Value Kind: Kd (µM)

> print(dat)
                                   compound  value.kind  result.units  value
1  Nc1ncnc2c1ncn2[C@@H]1O[C@H](COP(=O)(O)OP(=O)(O)OP(O)(O)=S)[C@@H](O)[C@H]1O [ATPγS, reference compound]          Kd            µM    9.5

---

Consider the following molecules and their measured pKd readings.
biological target: Wild-type ABL 0P (unphosphorylated) kinase domain (Homo sapiens, UniProt P00519); construct: ABL kinase domain (corresponding to residues 229-512); GST (N, cleaved yes); PreScission cleavage site (N, cleaved yes); made in house; host or cells: High5 insect cells (baculovirus); test: ATP site-dependent displacement assay, indolinone probe of 3.1; format: binding; conditions: Table 2; probe 3.1; 3 μM highest inhibitor concentration
pKd: −log10 of the molar value.
Value Kind: pKd

> print(dat)
                           smiles.structure  value
1  CC(C)(NC(=O)c1cc2c(NC(=O)c3ccc(CN4CCCCC4)cc3)n[nH]c2s1)c1ccccc1   6.62
2  CC(C)(NC(=O)c1cc2c(NC(=O)c3ccc(CN4CCOCC4)cc3)n[nH]c2s1)c1ccccc1F   6.48
3  CC(C)(NC(=O)c1cc2c(NC(=O)c3ccc(CN4CCCCC4)cc3)n[nH]c2s1)c1ccccc1F   6.97

---

molecular target: wild-type ABL kinase domain (Homo sapiens); construct: ABL kinase domain (corresponding to residues 229-512); GST (N, cleaved yes); PreScission cleavage site (N, cleaved yes); made in house; host or cells: High5 insect cells (baculovirus); assay: Indolinone probe titration (fluorescence), probe of 3.2; assay type: binding; conditions: Table 4
Value Kind: Kd (nM)

> print(dat)
                           smiles.structure  result.units  value
1  CCN(CC)CCNC(=O)c1c(C)[nH]c(/C=C2\C(=O)Nc3ccc(S(=O)(=O)NC)cc32)c1-c1ccc(F)cc1F            nM    330

---

target: Wild-type ABL 0P (unphosphorylated) kinase domain (Homo sapiens, UniProt P00519); construct: ABL kinase domain (corresponding to residues 229-512); GST (N, cleaved yes); PreScission cleavage site (N, cleaved yes); made in house; host or cells: High5 insect cells (baculovirus); assay: ATP site-dependent displacement assay, indolinone probe of 3.2; type: binding; conditions: Table 4 validation; probe 3.2 at 2 μM
pKd: −log10 of the molar value.
Value Kind: pKd

> print(dat)
                                   molecule  value.kind  value
1  Nc1ncnc2c1ncn2[C@@H]1O[C@H](COP(=O)(O)OP(=O)(O)OP(O)(O)=S)[C@@H](O)[C@H]1O [ATPγS, reference compound]         pKd   5.18

---

molecular target: wild-type ABL kinase domain (Homo sapiens); construct: ABL kinase domain (corresponding to residues 229-512); GST (N, cleaved yes); PreScission cleavage site (N, cleaved yes); made in house; host or cells: High5 insect cells (baculovirus); assay: ATP site-dependent displacement assay, indolinone probe of 3.1; format: binding; conditions: Table 2; probe 3.1; 3 μM highest inhibitor concentration
pKd: −log10 of the molar value.
Consider the following molecules and their measured pKd readings.
Value Kind: pKd

> print(dat)
                                   molecule                              assay.system  value
1  CC(C)(NC(=O)c1cc2c(NC(=O)c3ccc(CN4CCCCC4)cc3)n[nH]c2s1)c1ccccc1F [Compound 2]  wild-type ABL kinase domain (Homo sapiens)   6.75
2  CC(C)(NC(=O)c1cc2c(NC(=O)c3ccc(CN4CCOCC4)cc3)n[nH]c2s1)c1ccccc1F [Compound 3]  wild-type ABL kinase domain (Homo sapiens)   6.43
3  CC(C)(NC(=O)c1cc2c(NC(=O)c3ccc(CN4CCCCC4)cc3)n[nH]c2s1)c1ccccc1 [Compound 1]  wild-type ABL kinase domain (Homo sapiens)   6.60

---

biological target: Wild-type ABL 0P (unphosphorylated) kinase domain (Homo sapiens, UniProt P00519); construct: ABL kinase domain (corresponding to residues 229-512); GST (N, cleaved yes); PreScission cleavage site (N, cleaved yes); made in house; host or cells: High5 insect cells (baculovirus); assay: Indolinone probe titration (fluorescence), probe of 3.2; assay type: binding; details: Table 4
Value Kind: Kd (nM)

> print(dat)
                           smiles.structure  value
1  CCN(CC)CCNC(=O)c1c(C)[nH]c(/C=C2\C(=O)Nc3ccc(S(=O)(=O)NC)cc32)c1-c1ccc(F)cc1F    200

---

target: T315I ABL mutant kinase domain (Homo sapiens, UniProt P00519, T315I); construct: ABL kinase domain (corresponding to residues 229-512); GST (N, cleaved yes); PreScission cleavage site (N, cleaved yes); made in house; host or cells: High5 insect cells (baculovirus); test: Indolinone probe titration (fluorescence), probe of 3.2; assay type: binding; settings: Table 4
pKd: −log10 of the molar value.
Value Kind: pKd

> print(dat)
                           smiles.structure  value.kind  value
1  CCN(CC)CCNC(=O)c1c(C)[nH]c(/C=C2\C(=O)Nc3ccc(S(=O)(=O)NC)cc32)c1-c1ccc(F)cc1F         pKd   7.70

---

Consider the following molecules and their measured Kd readings.
Molecular target: T315I ABL mutant kinase domain (Homo sapiens, UniProt P00519, T315I)
Construct: ABL kinase domain (corresponding to residues 229-512); GST (N, cleaved yes); PreScission cleavage site (N, cleaved yes); made in house; host or cells: High5 insect cells (baculovirus)
Sequence (P00519 229-512 T315I): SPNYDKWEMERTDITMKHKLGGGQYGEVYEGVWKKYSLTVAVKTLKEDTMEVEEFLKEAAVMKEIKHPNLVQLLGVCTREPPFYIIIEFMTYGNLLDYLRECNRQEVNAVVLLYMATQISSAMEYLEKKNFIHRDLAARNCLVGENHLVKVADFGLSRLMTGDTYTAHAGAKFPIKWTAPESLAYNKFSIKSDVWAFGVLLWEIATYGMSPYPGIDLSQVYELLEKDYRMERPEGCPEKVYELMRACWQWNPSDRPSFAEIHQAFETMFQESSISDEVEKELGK
Assay: ATP site-dependent displacement assay, indolinone probe of 3.1
Assay type: binding
Settings: Tables 2 and 3; probe 3.1; 3 μM highest inhibitor concentration
Value Kind: Kd (nM)

> print(dat)
                           smiles.structure  result.units  value
1  CC(C)(NC(=O)c1cc2c(NC(=O)c3ccc(CN4CCOCC4)cc3)n[nH]c2s1)c1ccccc1F            nM     47
2  CN1CCC(Oc2ccc(C(=O)Nc3n[nH]c4sc(C(=O)NC(C)(C)c5ccccc5)cc34)cc2)CC1            nM      6
3  CC(C)(NC(=O)c1cc2c(NC(=O)c3ccc(CN4CCCCC4)cc3)n[nH]c2s1)c1ccc(F)cc1            nM     14
4  CC(C)(NC(=O)c1cc2c(NC(=O)c3ccc(N4CCOCC4)cc3)n[nH]c2s1)c1ccccc1            nM     16
5  CN1CCN(c2ccc(C(=O)Nc3n[nH]c4sc(C(=O)NC(C)(C)c5ccccc5)cc34)cc2)CC1            nM    4.1
6  CC(C)(NC(=O)c1cc2c(NC(=O)c3ccc(CN4CCCCC4)cc3)n[nH]c2s1)c1ccccc1F            nM     15
